System: CEM cells HIV-1 protection, formazan growth assay
Test: NCI AIDS Antiviral Assay
Settings: measured here: growth of uninfected CEM cells
Where a SMILES comes first, the peptide text is derived from it.
Entries whose IC50 is below 100 µM take Yes; entries at or above 100 µM take No.

{"molecule": "C=CC[C@@]1(OC(C)=O)C(=O)C(=O)OC1C1COC(C)(C)O1 (stereo partly specified)", "discrete_label": "Yes"}
{"molecule": "Nc1ncc(Br)c(NCC2(CO)CCC2)n1", "discrete_label": "Yes"}
{"molecule": "CSc1c(N(C)C)c(=O)c1=S", "discrete_label": "Yes"}
{"molecule": "O=c1c2cccnc2n2n1Cc1ccccc1C2", "discrete_label": "No"}
{"molecule": "Cc1nc(Nc2nc3ccccc3[nH]2)[nH]c(=O)c1CCO", "discrete_label": "No"}
{"molecule": "Cc1ccc(S(=O)(=O)Nc2ccccc2SSc2ccccc2NS(=O)(=O)c2ccc(C)cc2)cc1", "discrete_label": "Yes"}
{"molecule": "COc1ccc(-c2c(C#N)c(S)n(NS(=O)(=O)c3ccc(C)cc3)c(=O)c2C#N)cc1", "discrete_label": "Yes"}
{"molecule": "COC(=O)C(N)CSSCC(N)C(=O)OC (stereo unspecified)", "discrete_label": "No"}
{"molecule": "c1ccc([S+]([CH2][Hg][CH2][S+](c2ccccc2)c2ccccc2)c2ccccc2)cc1", "discrete_label": "Yes"}
{"molecule": "COc1cc2cc[n+](C)c(Cc3ccccc3)c2cc1OC", "discrete_label": "No"}
{"molecule": "CC(=O)Nc1ccc(C(O)/C(=N/N)c2nc3ccc(Cl)cc3[nH]c2=O)cc1 (stereo unspecified)", "discrete_label": "No"}
{"molecule": "O=C(CCCC[n+]1ccccc1)Sc1ccccc1C(=O)Nc1ccc(S(=O)(=O)Nc2ccccn2)cc1", "discrete_label": "No"}
{"molecule": "O=S(=O)(c1ccccc1)C(Br)c1ccccc1 (stereo unspecified)", "discrete_label": "No"}
{"molecule": "Cn1c(-c2cccc(N)c2)[n+](C)c2ccccc21", "discrete_label": "No"}
{"molecule": "CC1=CC(C)(C)Nc2ccccc2N1", "discrete_label": "No"}
{"molecule": "COc1ccc(-c2cc(C)n(C3OC(CO)C(O)C(O)C3O)c(=S)c2C#N)cc1 (stereo unspecified)", "discrete_label": "No"}
{"molecule": "Cc1nc2c(=O)n(-c3ccccc3)c3ccccc3c2o1", "discrete_label": "No"}
{"molecule": "Cc1cn(C(CO)OC(CO)CN(O)C2C3CC4CC(C3)CC2C4)c(=O)[nH]c1=O (stereo unspecified)", "discrete_label": "No"}
{"molecule": "O=C(O)c1c2c(cc3c1CC1(Cc4ccccc4C1)C3)CCC2", "discrete_label": "Yes"}
{"molecule": "CC1=NN(C(=O)c2ccccc2O)C(=O)/C1=C/c1ccc(O)cc1", "discrete_label": "Yes"}
{"molecule": "CC(C)(C)OC(=O)N1CC(O)O[C@H](c2ccccc2)[C@@H]1c1ccccc1 (stereo partly specified)", "discrete_label": "Yes"}
{"molecule": "Cc1cn(C2CC3C(COC(CC[Se]c4ccccc4)N3O)O2)c(=O)[nH]c1=O (stereo unspecified)", "discrete_label": "No"}
{"molecule": "COC1(CC2(OC)C=CC(=O)O2)C=CC(=O)O1 (stereo unspecified)", "discrete_label": "Yes"}
{"molecule": "Cc1cc2c(c3c1c1ccccc1n3C)C(=O)C=CC2=O", "discrete_label": "Yes"}
{"molecule": "CC(C)=C/C=C1/CS(=O)(=O)C=C1C", "discrete_label": "No"}
{"molecule": "O=C(O)/N=N\\C(=O)O", "discrete_label": "No"}
{"molecule": "COc1cc(Br)cc2nc(-c3cccs3)oc12", "discrete_label": "No"}
{"molecule": "CC(=O)NCCSS(=O)(=O)CCCCS(=O)(=O)SCCNC(C)=O", "discrete_label": "No"}
{"molecule": "CNC(=O)CNC(=O)C(NC(=O)CNC(=O)C1CCCN1C(=O)C(C)NC(=O)C(NC(C)=O)C(C)C)C(C)C (stereo unspecified) (Ac-VAPGVG-NHMe; configuration not given here)", "discrete_label": "No"}
{"molecule": "O=c1cc(N2CCOCC2)n2c(ccc3ccccc32)n1", "discrete_label": "No"}
{"molecule": "[O-][n+]1onc2c3nn(-c4ccccc4)nc3ccc21", "discrete_label": "Yes"}
{"molecule": "CC(C)(C)[Si](C)(C)OCC1OC(n2ccc(=O)[nH]c2=O)C(CCN(O)CC2OC(n3ccc(=O)[nH]c3=O)C(O[Si](C)(C)C(C)(C)C)C2O[Si](C)(C)C(C)(C)C)C1O[Si](C)(C)C(C)(C)C (stereo unspecified)", "discrete_label": "No"}

====

System: CEM cells HIV-1 protection, formazan growth assay
Assay: NCI AIDS Antiviral Assay;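 active = compounds giving half or more protection of infected cells from virus-caused growth loss, again on retest; inactive = the rest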
Possible outcomes: true (1) (active), false (0) (inactive)

{"molecule": "COc1c(F)c(F)c(/C(O)=C\\c2nc3ccccc3[nH]c2=O)c(F)c1F", "discrete_label": "false (0)"}
{"molecule": "NC(CSS(=O)(=O)O)=NCCc1ccc(O)cc1", "discrete_label": "false (0)"}
{"molecule": "COc1ccc(C2Oc3c(cccc3OC)C=C2[N+](=O)[O-])cc1OC (stereo not given)", "discrete_label": "false (0)"}
{"molecule": "Clc1ccc2sc(-n3ccc4ccccc43)nc2c1", "discrete_label": "false (0)"}
{"molecule": "Cc1sc2c(c1C)c(=O)[nH]c1c(C#N)c(-c3ccc(Cl)cc3)cn12", "discrete_label": "false (0)"}
{"molecule": "CCCc1cc(=O)[nH]c2c3c(c4c(c12)OC(C)(C)C=C4)O[C@H](C)[C@@H](C)[C@@H]3O", "discrete_label": "true (1)"}
{"molecule": "NC(N)=NS(=O)(=O)c1ccc(NC(=O)c2cccc3c(Nc4ccc(S(N)(=O)=O)cc4)c4ccccc4nc23)cc1", "discrete_label": "false (0)"}
{"molecule": "CN1C(=NCCO)NS(=O)(=O)c2ccccc21", "discrete_label": "false (0)"}
{"molecule": "CC1=C(C(=O)Nc2cccc(Cl)c2)C(c2ccccc2F)C(C(=O)Nc2cccc(Cl)c2)=C(C)N1", "discrete_label": "false (0)"}
{"molecule": "CCCCN(CCCC)CC1CC(C(C)(C)C)CCC1O (stereo not given)", "discrete_label": "false (0)"}

====

Test system: CEM cells HIV-1 protection, formazan growth assay
Assay: NCI AIDS Antiviral Assay
Conditions: measured here: growth of uninfected CEM cells
Experimental: The ability of compounds to protect human CEM cells from HIV-1 infection is measured as a screen for new compounds capable of inhibiting the HIV virus. Five concentrations of drug were tested on uninfected and infected cells and cell growth was measured using a soluble formazan assay. […] Compounds that provided at least 50% protection were retested. Compounds that provided at least 50% protection on retest were listed as moderately active. […]
pIC50: −log10 of the molar value.
Quick rule: pIC50 of at least 4 means YES, below that means NO.

{"compound": "CN1C(CCl)Nc2cc(Cl)c(S(N)(=O)=O)cc2S1(=O)=O (configuration not stated)", "test_system": "CEM cells HIV-1 protection, formazan growth assay", "discrete_label": "YES"}
{"compound": "CCCOC(=O)Nc1ccc2c(c1)c1c3[nH]c(=O)c4cccn4c3ccc1n2CC", "test_system": "CEM cells HIV-1 protection, formazan growth assay", "discrete_label": "NO"}
{"compound": "CC(C)(C)c1cc(-c2cc(C(C)(C)C)[nH]n2)n[nH]1", "test_system": "CEM cells HIV-1 protection, formazan growth assay", "discrete_label": "NO"}
{"compound": "CCCCNc1cc2oc(=O)cc(C)c2cc1N", "test_system": "CEM cells HIV-1 protection, formazan growth assay", "discrete_label": "YES"}
{"compound": "Cc1nn(C(=O)Cc2ccccc2)c2c1C(c1ccccc1)SC(N)=N2 (configuration not stated)", "test_system": "CEM cells HIV-1 protection, formazan growth assay", "discrete_label": "NO"}
{"compound": "N#Cc1ccc(Oc2cccc(N)c2)cc1C#N", "test_system": "CEM cells HIV-1 protection, formazan growth assay", "discrete_label": "NO"}
{"compound": "CN(C)c1ccc(SSc2ccc(N(C)C)cc2)cc1", "test_system": "CEM cells HIV-1 protection, formazan growth assay", "discrete_label": "YES"}
{"compound": "CSc1nncc2[nH]c(C)nc12", "test_system": "CEM cells HIV-1 protection, formazan growth assay", "discrete_label": "NO"}
{"compound": "O=C(O)CC1Sc2ccccc2NC1=O (configuration not stated)", "test_system": "CEM cells HIV-1 protection, formazan growth assay", "discrete_label": "NO"}

====

Test system: CEM cells HIV-1 protection, formazan growth assay
Assay: NCI AIDS Antiviral Assay
Settings: measured here: growth of uninfected CEM cells
readout: log10(IC50) (log10 of the value in µM)

{"compound": "CCOC(=O)C(=C(SC)SC)c1nn2c(=O)cc(C)nc2s1", "test_system": "CEM cells HIV-1 protection, formazan growth assay", "log10(IC50)": 1.25}
{"compound": "CCOC(=O)/C(C#N)=C1/c2ccccc2C(=O)C1(Cl)C(N)=O (centres undefined)", "test_system": "CEM cells HIV-1 protection, formazan growth assay", "log10(IC50)": 1.46}
{"compound": "CC(C)/C(Cl)=N\\OC(=O)Nc1ccc(C#N)cc1", "test_system": "CEM cells HIV-1 protection, formazan growth assay", "log10(IC50)": 0.63}
{"compound": "Cc1[nH]c2ccccc2c1C1Cc2ccccc2N1C(=O)/C(C#N)=C/c1ccccc1 (centres undefined)", "test_system": "CEM cells HIV-1 protection, formazan growth assay", "log10(IC50)": 0.36}
{"compound": "COC(=O)Cc1cc(OC)c(OC)cc1Br", "test_system": "CEM cells HIV-1 protection, formazan growth assay", "log10(IC50)": 2.71}
{"compound": "O=Nc1c(N=O)c(N=O)c(N=O)c(N=O)c1N=O", "test_system": "CEM cells HIV-1 protection, formazan growth assay", "log10(IC50)": 0.37}
{"compound": "CCC(C)N1CN(c2ccccc2)C2(CCN(CCCC(=O)c3ccc(F)cc3)CC2)C1=O (centres undefined)", "test_system": "CEM cells HIV-1 protection, formazan growth assay", "log10(IC50)": 0.55}
{"compound": "CN(C)c1ccc(/C=C(\\C#N)C(=O)c2ccccc2)cc1", "test_system": "CEM cells HIV-1 protection, formazan growth assay", "log10(IC50)": 0.79}
{"compound": "C=C(C)[C@H]1Cc2c(ccc3c2O[C@@H]2COc4cc(OC)c(OC)cc4[C@@H]2C3=O)O1", "test_system": "CEM cells HIV-1 protection, formazan growth assay", "log10(IC50)": -1.32}
{"compound": "COc1ccc(C2c3cc4c(cc3OC(NCCO)C2C)OCO4)cc1 (centres undefined)", "test_system": "CEM cells HIV-1 protection, formazan growth assay", "log10(IC50)": 1.34}
{"compound": "COC12C(COC(=O)NCCO)C3=C(C(=O)C(C)=C(N)C3=O)N1CC1NC12 (centres undefined)", "test_system": "CEM cells HIV-1 protection, formazan growth assay", "log10(IC50)": 0.06}
{"compound": "CO[C@@H]1C[C@H]2[C@@H]3CC[C@H]([C@@H](C)CO)[C@@]3(C)CC[C@@H]2[C@@]2(C)CC[C@H]3C[C@]312", "test_system": "CEM cells HIV-1 protection, formazan growth assay", "log10(IC50)": 2.01}
{"compound": "CCCC1C(=O)N2C(N(C)C)=Nc3ccc(C)cc3N2C1=O (centres undefined)", "test_system": "CEM cells HIV-1 protection, formazan growth assay", "log10(IC50)": 2.66}
{"compound": "O=C1SS(=O)c2ccccc21 (centres undefined)", "test_system": "CEM cells HIV-1 protection, formazan growth assay", "log10(IC50)": 1.98}
{"compound": "O=c1c2ccccc2nc(N/N=C/c2ccccc2O)n1-c1ccccc1", "test_system": "CEM cells HIV-1 protection, formazan growth assay", "log10(IC50)": 0.17}
{"compound": "COc1ccc(/C=C(\\C#N)c2ccc(OC)c(OC)c2)cc1", "test_system": "CEM cells HIV-1 protection, formazan growth assay", "log10(IC50)": -0.59}
{"compound": "NCCSSSSCCN", "test_system": "CEM cells HIV-1 protection, formazan growth assay", "log10(IC50)": 1.54}
{"compound": "O=C1NC2(CN3CCC2CC3)C(=O)N1CN(Cc1ccccc1)c1ccccc1 (centres undefined)", "test_system": "CEM cells HIV-1 protection, formazan growth assay", "log10(IC50)": 1.96}

Data origin, for the record: PubChem BioAssay AID179
